Origin of the recorded values: patent US20200247894A1

Record form. Attribute: Max Inhibition (%); IL-15 60 pM; NK92/hIL7R/STAT3-luc. Fill in for each entry.
Biological target: T1, human IL2Rγ (endogenously expressed on cells) (human, UniProt P31785 23-369)
T1 sequence (looked up): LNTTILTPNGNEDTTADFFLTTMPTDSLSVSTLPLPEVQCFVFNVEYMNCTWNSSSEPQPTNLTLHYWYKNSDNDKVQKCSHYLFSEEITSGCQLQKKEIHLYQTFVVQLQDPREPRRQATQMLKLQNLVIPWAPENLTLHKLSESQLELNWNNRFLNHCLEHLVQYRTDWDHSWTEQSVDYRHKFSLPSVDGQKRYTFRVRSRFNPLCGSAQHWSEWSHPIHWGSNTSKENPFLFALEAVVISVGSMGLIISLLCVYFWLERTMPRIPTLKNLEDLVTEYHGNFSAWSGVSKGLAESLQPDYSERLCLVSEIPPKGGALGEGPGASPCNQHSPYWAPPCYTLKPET
Test: cell-based or functional assay
Give bare numbers, in %.

INSERT INTO assay_data (binder, obsvalue) VALUES
  ('H4H12889P (antibody, human IgG4 S228P, kappa, V domains shown, human IgG4; also called REGN7257) VH: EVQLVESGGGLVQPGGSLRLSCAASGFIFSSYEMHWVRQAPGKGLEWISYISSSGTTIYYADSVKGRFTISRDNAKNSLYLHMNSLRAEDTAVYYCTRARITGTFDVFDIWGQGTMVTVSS VL: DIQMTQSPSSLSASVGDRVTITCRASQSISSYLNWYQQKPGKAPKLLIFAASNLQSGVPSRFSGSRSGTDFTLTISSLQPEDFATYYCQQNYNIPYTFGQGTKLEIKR', 92);

Switching to the query record.
Query string: Note down Max Inhibition (%); IL-15 60 pM; NK92/hIL7R/STAT3-luc recorded for H4H12886P (antibody, human IgG4 S228P, kappa, V domains shown, human IgG4) VH: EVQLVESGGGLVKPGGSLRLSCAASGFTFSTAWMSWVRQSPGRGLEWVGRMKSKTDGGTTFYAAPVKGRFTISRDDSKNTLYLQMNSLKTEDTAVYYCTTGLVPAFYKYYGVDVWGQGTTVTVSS VL: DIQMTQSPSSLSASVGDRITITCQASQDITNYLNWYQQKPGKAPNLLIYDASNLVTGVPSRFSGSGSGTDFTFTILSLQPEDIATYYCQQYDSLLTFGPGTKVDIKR
Result string: 64
